Data credit: patent US4286063A

- System: urokinase
- assay_explanation: Effect of heat stabilizers on residual urokinase activity after heat treatment
- Assay type: physicochemical
- experimental_setup: after heat treatment; concentrations of Table 2
endpoint_name: residual urokinase activity in the presence of heat stabilizer (%)
Quick note: give the figure in %, leave out the unit.

[[record]]
input_smiles = "NCCCC[C@H](N)C(=O)O"
unit_descriptor = "%"
reported_value = 78

[[record]]
input_smiles = "N=C(N)NCCC[C@H](N)C(=O)O"
unit_descriptor = "%"
reported_value = 79


Let us examine a further case.
I am curious: what residual urokinase activity in the presence of heat stabilizer value has been reported for `OC[C@@H](O)[C@@H](O)[C@H](O)[C@H](O)CO` ?
78
